experiment: ATB200-04 trial: population PK exposure matching of adolescents to adults; assay type: in vivo, human; settings: human, plasma, po, 260 mg, adolescent Subject 8; 260 mg; Week 72; 38.5 kg; read-out: individual predicted Cmax
observable: Cmax (ng/mL)
One number for each entry, in ng/mL.

Ask: Entry CCCCN1C[C@H](O)[C@@H](O)[C@H](O)[C@H]1CO [miglustat] : reported Cmax = ?
Result: 1800

###

experiment: ATB200-04 trial: population PK exposure matching of adolescents to adults; type: in vivo, human; settings: human, plasma, po, 260 mg, adolescent Subject 2; 260 mg; Week 52; 83.8 kg; read-out: individual predicted Cmax
observable: Cmax (ng/mL)
Numbers only, in ng/mL.

Ask: Entry CCCCN1C[C@H](O)[C@@H](O)[C@H](O)[C@H]1CO [miglustat] : reported Cmax = ?
Result: 1910

###

experiment: ATB200-04 trial: population PK exposure matching of adolescents to adults; type: in vivo, human; conditions: human, plasma, po, miglustat, predicted; Adolescents N=8; read-out: AUC0-24, P5
observable: AUC(0-t) (ng·h/mL)
Answers are plain numbers, in ng·h/mL.

Ask: Entry CCCCN1C[C@H](O)[C@@H](O)[C@H](O)[C@H]1CO [miglustat] : reported AUC(0-t) = ?
Result: 14100

###

assay: ATB200-04 trial: population PK exposure matching of adolescents to adults; type: in vivo, human; details: human, plasma, oral, miglustat, predicted; Adults N=100; read-out: AUC0-24, Mean
observable: AUC(0-t) (ng·h/mL)
One number for each entry, in ng·h/mL.

Ask: Entry CCCCN1C[C@H](O)[C@@H](O)[C@H](O)[C@H]1CO [miglustat] : reported AUC(0-t) = ?
Result: 20700

###

Experiment: ATB200-04 trial: population PK exposure matching of adolescents to adults
Format: in vivo, human
Conditions: human, plasma, po, 260 mg, adolescent Subject 3; 260 mg; Week 52; 64.6 kg; read-out: individual predicted AUC0-24
Method: The ATB200-04 trial seeks to evaluate the safety and tolerability of cipaglucosidase alfa/miglustat co-administration. Subjects have scheduled PK assessments at Day 1, Week 26, and Week 52 for plasma total GAA protein and miglustat. […] Methods for Exposure Matching. […] The effect of age at baseline on clearance was also evaluated in the PK models. […]
observable: AUC(0-t)

Ask: Entry CCCCN1C[C@H](O)[C@@H](O)[C@H](O)[C@H]1CO [miglustat] : reported AUC(0-t) = ?
Result: 20300 ng·h/mL

###

test: ATB200-04 trial: population PK exposure matching of adolescents to adults; type: in vivo, human; conditions: human, plasma, po, 195 mg, adolescent Subject 6; 195 mg; Week 52; 36.5 kg; read-out: individual predicted Cmax
observable: Cmax
Don't forget the unit after the value.

Ask: Entry CCCCN1C[C@H](O)[C@@H](O)[C@H](O)[C@H]1CO : reported Cmax = ?
Result: 1700 ng/mL

###

assay: ATB200-04 trial: population PK exposure matching of adolescents to adults; type: in vivo, human; settings: human, plasma, po, miglustat, predicted; Adolescents N=8; read-out: AUC0-24, Median
observable: AUC(0-t)
Don't forget the unit after the value.

Ask: Entry CCCCN1C[C@H](O)[C@@H](O)[C@H](O)[C@H]1CO : reported AUC(0-t) = ?
Result: 20000 ng·h/mL

###

experiment: ATB200-04 trial: population PK exposure matching of adolescents to adults; format: in vivo, human; settings: human, plasma, po, 260 mg, adolescent Subject 7; 260 mg; Week 52; 60.3 kg; read-out: individual predicted Cmax
observable: Cmax

Ask: Entry CCCCN1C[C@H](O)[C@@H](O)[C@H](O)[C@H]1CO : reported Cmax = ?
Result: 1850 ng/mL

###

experiment: ATB200-04 trial: population PK exposure matching of adolescents to adults; format: in vivo, human; conditions: human, plasma, oral, miglustat, predicted; Adults N=100; read-out: AUC0-24, P95
observable: AUC(0-t)
Don't forget the unit after the value.

Ask: Entry CCCCN1C[C@H](O)[C@@H](O)[C@H](O)[C@H]1CO : reported AUC(0-t) = ?
Result: 28300 ng·h/mL

###

assay: ATB200-04 trial: population PK exposure matching of adolescents to adults; assay type: in vivo, human; settings: human, plasma, oral, miglustat, predicted; Adults N=100; read-out: Cmax, Geo Mean
observable: Cmax
Don't forget the unit after the value.

Ask: Entry CCCCN1C[C@H](O)[C@@H](O)[C@H](O)[C@H]1CO [miglustat] : reported Cmax = ?
Result: 2370 ng/mL

###

experiment: ATB200-04 trial: population PK exposure matching of adolescents to adults; format: in vivo, human; conditions: human, plasma, oral, miglustat, predicted; Adults N=100; read-out: Cmax, Mean
observable: Cmax (ng/mL)
Give bare numbers, in ng/mL.

Ask: Entry CCCCN1C[C@H](O)[C@@H](O)[C@H](O)[C@H]1CO : reported Cmax = ?
Result: 2420
